target entity: MK2 (Homo sapiens)
measurement protocol: MK2 degradation in human THP-1 monocytic cells (MSD, 24 h)
Format: cell-based
Parameters: endogenous in cells
stated conditions: THP-1, THP-1 cells
property measured: Dmax

Cn1c(=O)n(C2CCC(=O)NC2=O)c2ccc(C3CCN(CC4CCN(c5ccc(-c6cc(-c7cc8c([nH]7)CCNC8=O)ccn6)c(F)c5)CC4)CC3)cc21 (stereo not drawn)	> 75%
C[C@@H]1CNc2c(sc3ccc4nc(-c5cc(C#N)cc(N6CCN(CC7CCN(c8ccc9c(c8)n(C)c(=O)n9C8CCC(=O)NC8=O)CC7)CC6)c5)ccc4c23)C(=O)N1 (stereo partly drawn)	> 75%
O=C1CCN(c2cncc3c(N4CCN(CC5CCN(c6ccc(-c7cc(-c8cc9c([nH]8)C8(CC8)CNC9=O)ccn7)cc6)CC5)CC4)cccc23)C(=O)N1	> 75%
CN1CCc2[nH]c(-c3ccnc(-c4ccc(N5CCN(CC6CCN(c7ccc8c(c7)n(C)c(=O)n8C7CCC(=O)NC7=O)CC6)CC5)cc4)c3)cc2C1=O (stereo not drawn)	< 50%
CCc1cc(-c2cc(-c3cc4c([nH]3)C3(CC3)CNC4=O)ccn2)cc(CC)c1N1CCN(CC2CCN(c3ccc4c(c3)n(C)c(=O)n4C3CCC(=O)NC3=O)CC2)CC1 (stereo not drawn)	< 50%

Q: GET /values?readout=Dmax&item= C[C@@H]1CNc2c(sc3ccc4nc(-c5cc(N6CCN(CC7CCN(c8ccc9c(c8)n(C)c(=O)n9C8CCC(=O)NC8=O)CC7)CC6)nc(C(C)(C)O)c5)ccc4c23)C(=O)N1 (stereo partly drawn)
Result: < 50%

Q: Repeat for the following molecule: CCc1cc(-c2ccc3c(ccc4sc5c(c43)NC[C@@H](C)NC5=O)n2)cc(N2CCN(CC3CCN(c4ccc5c(c4)n(C)c(=O)n5C4CCC(=O)NC4=O)CC3)CC2)c1 (stereo partly drawn)
Result: > 75%

###

target entity: MK2 (Homo sapiens, UniProt P49137)
Sequence (P49137 whole entry): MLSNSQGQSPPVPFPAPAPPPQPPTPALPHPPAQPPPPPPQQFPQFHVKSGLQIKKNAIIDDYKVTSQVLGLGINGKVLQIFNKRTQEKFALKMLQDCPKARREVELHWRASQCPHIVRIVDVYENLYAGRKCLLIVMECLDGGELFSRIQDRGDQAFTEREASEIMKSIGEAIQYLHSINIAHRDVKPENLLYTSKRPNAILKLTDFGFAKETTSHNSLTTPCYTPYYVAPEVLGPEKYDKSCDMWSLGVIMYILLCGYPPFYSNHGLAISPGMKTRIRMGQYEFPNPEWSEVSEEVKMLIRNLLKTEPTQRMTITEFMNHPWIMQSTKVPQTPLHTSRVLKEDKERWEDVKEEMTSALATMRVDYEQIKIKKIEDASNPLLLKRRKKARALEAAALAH
measurement protocol: MK2 degradation in human SW1353 cells (MSD, 24 h)
Assay type: cell-based
Design: endogenous in cells; host or cells: SW-1353 (ATCC HTB-94)
stated conditions: read-out: MK2 MSD SW1353 degradation 24 h GMean External Abs DC50
Readings of DC50 for the listed molecules

Q: Under MK2 (Homo sapiens, UniProt P49137): DC50 value of C[C@@H]1CNc2c(sc3ccc4nc(-c5ccc(N6CCC(CN7CCN(c8ccc9c(c8)n(C)c(=O)n9C8CCC(=O)NC8=O)CC7)CC6)cc5F)ccc4c23)C(=O)N1 (stereo partly drawn) ?
Result: < 1 nM

Q: Repeat for the following molecule: Cn1c(=O)n(C2CCC(=O)NC2=O)c2cccc(CCCN3CCN(c4ccc(-c5cc(-c6cc7c([nH]6)C6(CC6)CNC7=O)ccn5)cc4)CC3)c21 (stereo not drawn)
Result: 1 to 10 nM

Q: Repeat for the following molecule: Cn1c(=O)n(C2CCC(=O)NC2=O)c2ccc(N3CC(CN4CCN(c5ccc(-c6cc(-c7cc8c([nH]7)C7(CC7)CNC8=O)ccn6)c(F)c5)CC4)C3)cc21 (stereo not drawn)
Result: < 1 nM

Q: Repeat for the following molecule: Cn1c(=O)n(C2CCC(=O)NC2=O)c2ccc(N3CCC(CN4CCN(c5ccc(-c6cc(-c7cc8c([nH]7)C7(CC7)CNC8=O)ccn6)cn5)CC4)CC3)cc21 (stereo not drawn)
Result: < 1 nM

Q: Repeat for the following molecule: `C[C@@H]1CNc2c(sc3ccc4nc(-c5ccc(N6CCC(CN7CCN(c8cccc9c(N%10CCC(=O)NC%10=O)cncc89)CC7)CC6)cc5)ccc4c23)C(=O)N1`
Result: 1 to 10 nM
